biological target: Serine/threonine-protein kinase Sgk1 (Homo sapiens) (UniProt O00141); settings: at 1 µM
Sequence (O00141 whole entry): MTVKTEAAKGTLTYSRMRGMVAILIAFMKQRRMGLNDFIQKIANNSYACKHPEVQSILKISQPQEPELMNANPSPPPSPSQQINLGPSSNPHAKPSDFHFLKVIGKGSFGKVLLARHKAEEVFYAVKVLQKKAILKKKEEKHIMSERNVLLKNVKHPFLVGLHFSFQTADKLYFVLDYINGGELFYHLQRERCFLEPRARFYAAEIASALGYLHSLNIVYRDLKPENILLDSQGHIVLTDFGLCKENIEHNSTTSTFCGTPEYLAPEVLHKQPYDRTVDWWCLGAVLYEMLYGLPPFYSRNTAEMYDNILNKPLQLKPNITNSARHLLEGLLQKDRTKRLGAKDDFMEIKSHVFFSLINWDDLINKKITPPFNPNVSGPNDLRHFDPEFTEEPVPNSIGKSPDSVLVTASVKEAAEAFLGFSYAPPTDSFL
measuredEndpoint: residual activity (%)
One number for each entry, in %.

smilesdata=Cn1cc(/C=C2\C(=O)Nc3ccc(S(N)(=O)=O)cc32)c2ccccc21 measvalue=85
smilesdata=O=C1NC(=O)c2cc(Nc3ccc(F)cc3)c(Nc3ccc(F)cc3)cc21 measvalue=108
smilesdata=c1ccc2c(-c3ccncc3)c[nH]c2c1 measvalue=102
smilesdata=COc1ccc(OC)c2c(=S)c3ccccc3[nH]c12 measvalue=90
smilesdata=O=C1NC(=O)/C(=C/c2ccc3c(c2)OC(F)(F)O3)S1 measvalue=116

Provide each entry's residual activity from the list below.
1. O=c1cc(-c2cccc3c2Sc2ccccc2S3)oc(N2CCOCC2)c1
2. O=C1Nc2cc(Br)ccc2/C1=C1/Nc2ccccc2/C1=N\O

1: 103; 2: 28

----------
Molecular target: Serine/threonine-protein kinase Nek11 (Homo sapiens) (UniProt Q8NG66)
Sequence (whole entry): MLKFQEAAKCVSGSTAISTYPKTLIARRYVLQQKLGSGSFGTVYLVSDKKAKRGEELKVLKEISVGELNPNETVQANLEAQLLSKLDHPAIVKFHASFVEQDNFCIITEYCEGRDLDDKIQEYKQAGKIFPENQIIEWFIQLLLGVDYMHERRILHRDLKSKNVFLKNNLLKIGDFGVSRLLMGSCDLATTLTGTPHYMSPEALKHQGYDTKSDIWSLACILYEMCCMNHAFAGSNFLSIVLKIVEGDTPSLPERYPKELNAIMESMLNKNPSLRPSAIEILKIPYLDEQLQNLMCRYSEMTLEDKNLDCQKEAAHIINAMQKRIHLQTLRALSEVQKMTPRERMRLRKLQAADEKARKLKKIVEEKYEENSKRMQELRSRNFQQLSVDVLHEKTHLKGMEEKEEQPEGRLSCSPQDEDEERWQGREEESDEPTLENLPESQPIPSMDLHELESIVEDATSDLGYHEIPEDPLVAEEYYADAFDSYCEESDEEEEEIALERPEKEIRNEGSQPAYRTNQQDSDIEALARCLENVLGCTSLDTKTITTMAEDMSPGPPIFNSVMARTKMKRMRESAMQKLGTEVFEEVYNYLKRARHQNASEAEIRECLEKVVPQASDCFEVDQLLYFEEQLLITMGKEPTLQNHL
Settings: at 1 µM
Think of 80% as a floor: if residual activity stands on it or above, it is 1 (yes); beneath it, 0 (no).

compound=Cc1ccc(S(=O)(=O)/C=C/C#N)cc1 qualitativelabel="0 (no)"
compound=c1ccc2c(-c3ccncc3)c[nH]c2c1 qualitativelabel="1 (yes)"
compound=COc1cc2ncnc(Nc3ccc(O)c(Br)c3)c2cc1OC qualitativelabel="0 (no)"
compound=O=C1c2ccccc2-[n+]2ccc3c([nH]c4ccccc43)c21 qualitativelabel="0 (no)"
compound=COc1cc2ncnc(N3CCN(C(=O)Nc4ccc(Oc5ccccc5)cc4)CC3)c2cc1OC qualitativelabel="1 (yes)"

Is the recorded value of residual activity equal to or greater than 80% for this compound? `O=C1Nc2cc(Br)ccc2/C1=C1/Nc2ccccc2/C1=N\O` 0 (no)

Field entry: `Cc1nc2cc3nc(-c4cccs4)cnc3cc2n1C` 1 (yes)

Field entry: `Cn1cnc2cc3c(Nc4cccc(Br)c4)ncnc3cc21` 1 (yes)

Field entry: `O=C(Nc1cccc(Nc2cc(Nc3cccc(C(F)(F)F)c3)ncn2)c1)C1CC1` 1 (yes)

Field entry: `Nc1n[nH]c2nnc(-c3c(-c4ccccc4)nn4ccccc34)cc12` 1 (yes)

Field entry: `Oc1ccc(-c2nc(-c3ccc(F)cc3)c(-c3ccncc3)[nH]2)cc1` 1 (yes)

Field entry: `N#CC(C#N)=C(N)/C(C#N)=C/c1ccc(O)cc1` 0 (no)

Field entry: O=C1Nc2ccccc2/C1=C1/Nc2ccccc2/C1=N\OCCC(O)CO (stereo unspecified) 0 (no)

Field entry: `Cn1nc2c3c(cccc31)C(=O)c1ccccc1-2` 0 (no)
